Below, each entry is listed with its recorded pEC50.
target: T1, recombinant human LIF (Leukemia Inhibitory Factor) (human, UniProt P15018 23-202); test: ELISA, coated recombinant human LIF, anti-human Fc HRP detection
T1 construct: also called biotinylated recombinant human LIF
T1 sequence (P15018 23-202 limits assumed, form in doubt): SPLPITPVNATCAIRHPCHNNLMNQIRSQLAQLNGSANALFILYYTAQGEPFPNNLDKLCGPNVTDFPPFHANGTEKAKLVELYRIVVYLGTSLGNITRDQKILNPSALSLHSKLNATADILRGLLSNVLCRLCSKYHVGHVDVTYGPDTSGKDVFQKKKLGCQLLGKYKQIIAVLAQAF
To interpret pEC50, take it as minus log10 of a concentration measured in moles per litre.

binder="NB0920 (antibody, V domains shown, Humanized variant of B7 by CDR grafting; also called Clone 920) VH: QVQLQESGPGLVKPSDTLSLTCTVSGFSFSTDYWWSWIRQPPGKGLEWIGYIYVGTSGDTYYNPSLKSRVTISVDTSKNQFSLKLSSVTAADTAVYYCAGADNPYDYFNLWGQGTLVTVSS VL: DIQMTQSPSSLSASVGDRVTITCRASETISGYLAWYQQKPGKVPKLLIYRASTLQSGVPSRFSGSGSGTDFTLTISSLQPEDVATYYCQQGYSYSDTDNVFGGGTKVEIK" assay_readout=pEC50 result_value=9.92
binder="NB0919 (antibody, V domains shown, Humanized variant of B7 by CDR grafting; also called Clone 919) VH: QVQLQESGPGLVKPSDTLSLTCTVSGFSFSTDYWWSWIRQPPGKGLEWIGYIYVGTSGDTYYNPSLKSRVTISVDTSKNQFSLKLSSVTAADTAVYYCAGADNPYDYFNLWGQGTLVTVSS VL: DIQMTQSPSSLSASVGDRVTITCRASETISGYLNWYQQKPGKAPKLLIYRASSLQSGVPSRFSGSGSGTDFTLTISSLQPEDFATYYCQQGYSYSDTDNVFGGGTKVEIK" assay_readout=pEC50 result_value=9.77

**Q:** Report pEC50 for NB0937 (antibody, V domains shown, Humanized variant of B7 by CDR grafting; also called Clone 937) VH: EVQLVESGGGLVQPGGSLRLSCAASGFSFSTDYWMSWVRQAPGKGLEWVSSIYVGTSGDTYYADSVKGRFTISRDNSKNTLYLQMDSLRAEDTAIYYCAGADNPYDYFNLWGQGTLVTVS VL: DIQMTQSPSSVSASVGDRVTITCRASETISGYLAWYQQKPGKAPKLLIYRASSLESGVPSRFSGSGSGTEFTLTISSLQPDDFATYYCQQGYSYSDTDNVFGGGTKVEIK please.
**A:** 10.10

The reported numbers originate from patent US20230050773A1.
